// values below are reported IC50
test system: HPK1 pSLP76 (Ser376); assay: Cellular assay phospho-SLP-76 (Ser376); format: cell-based, human; conditions: SLP76 Ser376 phosphorylation after αCD3/αCD28 stimulation; Jurkat (human) or EL-4 (mouse) cells, table does not say which; read-out: HPK1 pSLP76 IC50

These solved cases illustrate the format of a correct answer.
> print(dat)
                                   molecule  target.or.test.system  recorded.measurement
1  CS(=O)(=O)Cc1ccc(-c2cc(C(N)=O)c3ncnc(N[C@H]4CCCNC4)c3n2)cc1 [Example 54]   HPK1 pSLP76 (Ser376)             > 1000 nM
2  N#Cc1ccccc1-c1cc(C(N)=O)c2ncnc(N[C@H]3CCCNC3)c2n1 [Example 86]   HPK1 pSLP76 (Ser376)        500 to 1000 nM
3  NC(=O)c1cc(-c2ccc(CN3C4COCC3C4)cc2)nc2c(N[C@H]3CCCNC3)ncnc12 [Example 67]   HPK1 pSLP76 (Ser376)             > 1000 nM

Query block: Look at this molecule and give its reported IC50. CC(C)(O)COc1ccc(-c2cc(C(N)=O)c3ncnc(N[C@@H]4CNCC[C@@H]4F)c3n2)cc1 [Example 38]
Result block: < 500 nM

These data points were gathered from patent US20250320228A1.
